- Tested on: HS 578T breast
- test.name: NCI tumour cell line growth inhibition, 48 h; in the data active = GI50 below about 0.43 µM; inactive = the rest
Please answer using one outcome listed in t for active, f for inactive

Past entries and their recorded results:
>  <molecule>
Cc1ccc2oc(=O)cc(C3c4ccc([nH]4)C(c4cc(=O)oc5ccc(C)cc45)c4ccc([nH]4)C(c4cc(=O)oc5ccc(C)cc45)c4ccc([nH]4)C(c4cc(=O)oc5ccc(C)cc45)c4ccc3[nH]4)c2c1 (stereo not given)

>  <target.or.test.system>
HS 578T breast

>  <class>
t

$$$$
>  <molecule>
CCN1CCN(c2cc(C)nc(NCc3cc(Nc4ccnc5cc(Cl)ccc45)ccc3F)n2)CC1

>  <target.or.test.system>
HS 578T breast

>  <class>
f

$$$$
>  <molecule>
O=C1/C(=C/c2ccc(C(F)(F)F)cc2)COc2ccc(O)cc21

>  <target.or.test.system>
HS 578T breast

>  <class>
f

$$$$

Q: I would be grateful if you could indicate the recorded call for Cc1sc2c(c1C)C(c1ccc(Cl)cc1)=N[C@@H](CC(=O)Nc1ccc(O)cc1)c1nnc(C)n1-2 .
Ans: t

Q: Request: C#CCOc1cccc(Nc2ncnc3c2ncn3C2CCN(C(=O)CCl)C2)c1 (stereo not given)
Ans: f

Q: Request: O=C1/C(=C\c2cn(CC(O)CN3CCCCC3)c3ccccc23)c2ccccc2N1c1c(Cl)cccc1Cl (stereo not given)
Ans: f

* * *

- Tested on: NCI-H23 lung
- test.name: NCI tumour cell line growth inhibition, 48 h
measurement.type: TGI (µM)
Report only the number, with the unit µM understood.

Examples with answers:
>  <compound>
CCN1CCN(c2nc(C)cc(N(CCCNc3ccnc4cc(Cl)ccc34)Cc3ccco3)n2)CC1

>  <target.or.test.system>
NCI-H23 lung

>  <TGI [µM]>
27

$$$$
>  <compound>
COC(=O)C[C@](O)(CCC(C)(C)O)C(=O)O[C@@H]1C(OC)=C[C@]23CCCN2CCc2cc4c(cc2[C@H]13)OCO4

>  <target.or.test.system>
NCI-H23 lung

>  <TGI [µM]>
0.323

$$$$

// below: TGI requested for another compound
Q: // query TGI value for entry CCC(C)N1CN(c2ccccc2)C2(CCN(CCCC(=O)c3ccc(F)cc3)CC2)C1=O (stereo not given)
Ans: 14.1

* * *

- System: MDA-N
- test.name: NCI tumour cell line growth inhibition, 48 h
measurement.type: TGI

>  <compound>
CCC(C)c1cnc(CC(C)C)c(=O)[nH]1 (configuration not stated)

>  <measurement.type>
TGI

>  <readout.value>
> 100 µM

$$$$
>  <compound>
COc1ccc(CCN2CCOCC2)cc1

>  <measurement.type>
TGI

>  <readout.value>
> 100 µM

$$$$
>  <compound>
COC(=O)C1=C2Nc3ccccc3C23CCN2C(O)C4(CC5CC67CCOC6CCN6CCC8(c9cccc(OC)c9N(C4)C58O)C67)C4OCCC4(C1)C23 (configuration not stated)

>  <measurement.type>
TGI

>  <readout.value>
> 100 µM

$$$$
>  <compound>
C/C=C/COc1cc(NC(=S)c2ccoc2C)ccc1OC

>  <measurement.type>
TGI

>  <readout.value>
> 100 µM

$$$$
>  <compound>
C=C(C)C(=O)N1c2ccc(OC)cc2CC1C(=O)OCC (configuration not stated)

>  <measurement.type>
TGI

>  <readout.value>
> 100 µM

$$$$

Q: // query TGI value for entry O=C(O)[C@H]1NC[C@@H]2ON=C(Br)[C@@H]21
Ans: > 100 µM

Q: Request: CC1(C)C(C(=O)OC(C#N)c2cccc(OCC(=O)OCc3ccccc3)c2)C1(C)C (configuration not stated)
Ans: > 100 µM

Q: Request: CC(Nc1cc(=O)n(C)c(=O)[nH]1)c1ccccc1 (configuration not stated)
Ans: > 100 µM

Q: Request: COC(=O)C1(Cc2ccc3c(c2)CCC3)Cc2cc3c(cc2C1=O)CCC3 (configuration not stated)
Ans: > 46.4 µM

Q: Request: O=C(Nc1ccc(Cl)cc1)c1cc(S(=O)(=O)NC2=NC(c3ccccc3)c3cc(Cl)ccc3N2)c(SSc2cc(Cl)c(C(=O)Nc3ccc(Cl)cc3)cc2S(=O)(=O)NC2=NC(c3ccccc3)c3cc(Cl)ccc3N2)cc1Cl (configuration not stated)
Ans: > 100 µM

Q: Request: CC(=N\N=C\c1ccccn1)/C(C)=N/N=C/c1ccccn1
Ans: > 100 µM

Q: Request: Nc1n[n+]([O-])c2cnccc2[n+]1[O-]
Ans: 36.6 µM

Q: Request: CC1=NN(c2cccc(Cl)c2)C2(C1)SCC(=O)N2c1nc2ccccc2s1 (configuration not stated)
Ans: > 100 µM

* * *

- System: NCI-H522 lung
- test.name: NCI tumour cell line growth inhibition, 48 h
Kindly return Y if reported TGI is no lower than 40 µM; return N if it is lower.

Q: Answer whether TGI of O=c1[nH]c2cc([N+](=O)[O-])c(N(CCO)CCO)c([N+](=O)[O-])c2[nH]1 is greater than or equal to 40 µM.
Ans: Y

Q: Request: CC1=NN(c2cccc(Cl)c2)C2(C1)SCC(=O)N2c1nc2ccccc2s1 (centres undefined)
Ans: Y

Q: Request: C/C=C/COc1cc(NC(=S)c2ccoc2C)ccc1OC
Ans: Y

Q: Request: O=C(Cc1ccccc1)NN1C(=O)C(Cl)C1c1ccccc1 (centres undefined)
Ans: N

Q: Request: Oc1cccc2nc3cc(CN4CCOCC4)c(CN4CCOCC4)cc3nc12
Ans: Y

Q: Request: CC[C@@]1(O)C(=O)OCc2c1cc1n(c2=O)Cc2c-1nc1ccccc1c2/C=N\NC(=O)C(N)=O
Ans: Y

Q: Request: O/N=C1/C(=C/c2ccc(Cl)cc2)CCCC1C(NO)c1ccc(Cl)cc1 (centres undefined)
Ans: Y

* * *

Listed here: items and their measured TGI.
- System: IGROV1 ovarian
- test.name: NCI tumour cell line growth inhibition, 48 h

>  <molecule>
C/C=C/COc1cc(NC(=S)c2ccoc2C)ccc1OC

>  <target.or.test.system>
IGROV1 ovarian

>  <TGI>
> 100 µM

$$$$
>  <molecule>
CC(=O)O[C@H]1CC[C@H]2[C@@H]3CC[C@H]4Nc5c(cnn5S(C)(=O)=O)C[C@]4(C)[C@H]3CC[C@]12C

>  <target.or.test.system>
IGROV1 ovarian

>  <TGI>
> 100 µM

$$$$
>  <molecule>
CC(C)=CCC[C@@H](C)C1=C(O)C(Nc2ccccc2F)=C(C)C(=O)C1=O

>  <target.or.test.system>
IGROV1 ovarian

>  <TGI>
> 69.5 µM

$$$$
>  <molecule>
CCC[CH2][Sn]1([CH2]CCC)[O]CC([CH2][Sn]([c]2ccccc2)([c]2ccccc2)[c]2ccccc2)[O]1 (stereo not drawn)

>  <target.or.test.system>
IGROV1 ovarian

>  <TGI>
29.2 µM

$$$$
>  <molecule>
CC(C)c1ccc(O)c(O)c(=O)c1 (tested in a mixture with another compound)

>  <target.or.test.system>
IGROV1 ovarian

>  <TGI>
> 54.9 µM

$$$$

Q: // query TGI value for entry COC(=O)C[C@](O)(CCC(C)(C)O)C(=O)O[C@@H]1C(OC)=C[C@]23CCCN2CCc2cc4c(cc2[C@H]13)OCO4
Ans: 0.506 µM

Q: Request: O/N=C1/C(=C/c2ccc(Cl)cc2)CCCC1C(NO)c1ccc(Cl)cc1 (stereo not drawn)
Ans: > 100 µM

Q: Request: Cc1ccc(C(=O)Nc2ccccc2C(=O)N/N=C(\c2ccccc2)c2ccccn2)cc1
Ans: > 100 µM

* * *

- Tested on: SW-620 colon
- test.name: NCI tumour cell line growth inhibition, 48 h
Listed here: items and their measured GI50.

>  <item.smiles>
CN(C)CCC(=O)NCc1c2nc3ccccc3nc2n2ccccc12

>  <readout.value>
58.7 µM

$$$$
>  <item.smiles>
COc1ccc(Cn2cc3c(c2-c2ccccc2)CCc2cncnc2-3)cc1

>  <readout.value>
3.65 µM

$$$$
>  <item.smiles>
COc1cc2c(cc1-c1c(C)noc1C)ncc1[nH]c(=O)n([C@H](C)c3ccccn3)c12

>  <readout.value>
28.1 µM

$$$$

// below: GI50 requested for another compound
Q: // query GI50 value for entry O=C(Nn1c2c(sc1=NC1CC1)C(=O)c1ccccc1C2=O)c1cc2ccc1CCc1ccc(cc1)CC2
Ans: 1.92 µM

* * *

Listed here: items and their measured TGI.
- System: UACC-62 melanoma
- test.name: NCI tumour cell line growth inhibition, 48 h

>  <molecule>
Cn1c2cc(Cl)ccc2c2ccc3c(c21)C(=O)C=CC3=O

>  <target.or.test.system>
UACC-62 melanoma

>  <measurement.type>
TGI

>  <readout.value>
> 31.6 µM

$$$$

Q: // query TGI value for entry CN(c1ccccc1Cl)S(=O)(=O)c1ccccc1
Ans: > 100 µM

Q: Request: CC1CCC(C#N)(NOC2=NCCN2)CC1 (stereo not given)
Ans: > 100 µM

Q: Request: C=C(C)C(=O)N1c2ccc(OC)cc2CC1C(=O)OCC (stereo not given)
Ans: > 100 µM

Q: Request: COC(=O)Nc1nc2ccc(NS(=O)(=O)c3ccc(F)cc3)cc2[nH]1
Ans: > 100 µM
